Test system: OCI-AML-3
method.description: Anti-proliferative effect
Type: cell-based
cond: Homo sapiens, AML(FLT3wt)
Documented GI50 across a set of compounds
# output: bare number, implied unit µM

Solved cases below.
Find the recorded GI50 belonging to CC[C@H](Nc1ncnc2[nH]cnc12)c1nc2cccc(F)c2c(=O)n1-c1ccccc1 and report it.
2.4

Find the recorded GI50 belonging to Cc1nc(NC(=O)CN)sc1-c1cnc(Cl)c(NS(=O)(=O)c2ccc(C(C)(C)C)cc2)c1 and report it.
2.4

Find the recorded GI50 belonging to CC(C)(O)CNc1ncc(-c2ccnc(Nc3ccnc(Cl)c3)n2)c(CC2CC2)n1 and report it.
3.6

We next turn to a different compound, shown below.
Find the recorded GI50 belonging to CS(=O)(=O)N1CCN(Cc2cc3nc(-c4cccc5[nH]ncc45)nc(N4CCOCC4)c3s2)CC1 and report it.
0.73

---

Test system: MV4-11
method.description: Anti-proliferative effect
Type: cell-based
cond: Homo sapiens, MV4-11; AML (FLT3-ITD)
Documented GI50 across a set of molecules
# output: bare number, implied unit µM

Find the recorded GI50 belonging to CS(=O)(=O)N1CCN(Cc2cc3nc(-c4cccc5[nH]ncc45)nc(N4CCOCC4)c3s2)CC1 [GDC-0941] and report it.
1.4

Find the recorded GI50 belonging to CC(C)(O)CNc1ncc(-c2ccnc(Nc3ccnc(Cl)c3)n2)c(CC2CC2)n1 [VPS34-IN-1] and report it.
2.4

---

experimental.system: PI3Kα (Mus musculus, UniProt P42337)
Construct: endogenous in cells
method.description: PI3K isoforms cellular selectivity assay (AKT phosphorylation, NIH-3T3, PDGF-BB)
cond: NIH-3T3 cells, PDGF-BB stimulation
Protocol: Cells were lysed and AKT phosphorylation was determined by Western Blotting. Intensity of the bands was determined using ImageJ 1.42q (NIH, USA) and normalized to total AKT (loading control).
measured.metric: EC50
Report as: number unit

Find the recorded EC50 belonging to Cc1nc(NC(=O)CN)sc1-c1cnc(Cl)c(NS(=O)(=O)c2ccc(C(C)(C)C)cc2)c1 [PI3KD/V-IN-01] and report it.
2970 nM

---

experimental.system: PI3Kδ (Homo sapiens, UniProt O00329)
Sequence (O00329 whole entry): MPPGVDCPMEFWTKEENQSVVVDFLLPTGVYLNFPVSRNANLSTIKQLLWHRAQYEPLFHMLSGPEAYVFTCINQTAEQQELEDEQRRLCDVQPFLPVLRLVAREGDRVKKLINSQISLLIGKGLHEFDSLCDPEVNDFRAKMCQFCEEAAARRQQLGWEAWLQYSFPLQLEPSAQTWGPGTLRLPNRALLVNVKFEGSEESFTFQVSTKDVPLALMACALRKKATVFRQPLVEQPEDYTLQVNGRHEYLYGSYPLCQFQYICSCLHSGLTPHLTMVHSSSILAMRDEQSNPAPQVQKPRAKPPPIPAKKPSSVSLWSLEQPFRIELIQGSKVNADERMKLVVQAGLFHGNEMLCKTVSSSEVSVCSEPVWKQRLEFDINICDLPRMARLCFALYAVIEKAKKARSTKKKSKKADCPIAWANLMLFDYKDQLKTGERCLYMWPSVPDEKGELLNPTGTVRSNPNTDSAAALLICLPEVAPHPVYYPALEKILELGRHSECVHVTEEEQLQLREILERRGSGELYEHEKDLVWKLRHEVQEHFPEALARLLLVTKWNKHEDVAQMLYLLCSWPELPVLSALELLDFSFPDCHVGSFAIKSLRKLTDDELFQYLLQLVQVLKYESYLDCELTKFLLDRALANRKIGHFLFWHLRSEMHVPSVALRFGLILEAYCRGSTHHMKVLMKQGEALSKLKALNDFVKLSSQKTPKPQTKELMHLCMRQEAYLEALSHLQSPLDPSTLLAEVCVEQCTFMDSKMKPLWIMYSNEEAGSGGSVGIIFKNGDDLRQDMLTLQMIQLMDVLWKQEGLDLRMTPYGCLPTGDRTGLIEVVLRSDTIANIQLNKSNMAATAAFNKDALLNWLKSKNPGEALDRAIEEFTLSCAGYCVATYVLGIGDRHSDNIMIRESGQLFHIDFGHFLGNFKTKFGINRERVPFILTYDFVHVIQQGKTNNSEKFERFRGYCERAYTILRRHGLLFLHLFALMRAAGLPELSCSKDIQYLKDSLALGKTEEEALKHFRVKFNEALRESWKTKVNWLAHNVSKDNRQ
Sequence (P27986 whole entry partner): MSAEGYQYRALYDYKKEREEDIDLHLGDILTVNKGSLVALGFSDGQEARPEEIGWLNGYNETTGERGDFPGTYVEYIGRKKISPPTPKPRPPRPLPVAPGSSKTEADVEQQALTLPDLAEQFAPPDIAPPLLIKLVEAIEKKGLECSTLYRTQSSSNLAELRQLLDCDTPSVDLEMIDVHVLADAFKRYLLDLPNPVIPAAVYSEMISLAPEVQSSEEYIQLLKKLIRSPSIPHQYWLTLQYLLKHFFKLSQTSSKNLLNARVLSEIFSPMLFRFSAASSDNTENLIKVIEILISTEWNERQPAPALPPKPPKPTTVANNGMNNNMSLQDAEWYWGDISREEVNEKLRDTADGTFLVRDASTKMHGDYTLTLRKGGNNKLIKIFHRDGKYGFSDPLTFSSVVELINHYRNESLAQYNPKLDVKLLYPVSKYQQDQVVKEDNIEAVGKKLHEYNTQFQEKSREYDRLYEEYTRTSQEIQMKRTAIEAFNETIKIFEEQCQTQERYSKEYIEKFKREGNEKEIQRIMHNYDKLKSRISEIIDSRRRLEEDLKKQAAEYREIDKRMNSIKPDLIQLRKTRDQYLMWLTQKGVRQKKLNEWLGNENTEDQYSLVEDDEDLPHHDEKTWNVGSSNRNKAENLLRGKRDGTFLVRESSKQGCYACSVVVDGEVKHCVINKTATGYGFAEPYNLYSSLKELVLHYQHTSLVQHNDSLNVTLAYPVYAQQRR
measured.metric: pIC50
FYI, pIC50 means -log10 of a concentration in mol per litre.

Find the recorded pIC50 belonging to Cc1nc(NC(=O)CN)sc1-c1cnc(Cl)c(NS(=O)(=O)c2ccc(C(C)(C)C)cc2)c1 and report it.
8.22

---

experimental.system: PI3Kβ (Homo sapiens, UniProt P42338)
measured.metric: pIC50
FYI, pIC50 means -log10 of a concentration in mol per litre.

// fetch PI3Kβ (Homo sapiens, UniProt P42338) pIC50 for Cc1nc(NC(=O)CN)sc1-c1cnc(Cl)c(NS(=O)(=O)c2ccc(C(C)(C)C)cc2)c1
6.95

---

experimental.system: PI4KA (Homo sapiens)
Sequence (P42356 whole entry): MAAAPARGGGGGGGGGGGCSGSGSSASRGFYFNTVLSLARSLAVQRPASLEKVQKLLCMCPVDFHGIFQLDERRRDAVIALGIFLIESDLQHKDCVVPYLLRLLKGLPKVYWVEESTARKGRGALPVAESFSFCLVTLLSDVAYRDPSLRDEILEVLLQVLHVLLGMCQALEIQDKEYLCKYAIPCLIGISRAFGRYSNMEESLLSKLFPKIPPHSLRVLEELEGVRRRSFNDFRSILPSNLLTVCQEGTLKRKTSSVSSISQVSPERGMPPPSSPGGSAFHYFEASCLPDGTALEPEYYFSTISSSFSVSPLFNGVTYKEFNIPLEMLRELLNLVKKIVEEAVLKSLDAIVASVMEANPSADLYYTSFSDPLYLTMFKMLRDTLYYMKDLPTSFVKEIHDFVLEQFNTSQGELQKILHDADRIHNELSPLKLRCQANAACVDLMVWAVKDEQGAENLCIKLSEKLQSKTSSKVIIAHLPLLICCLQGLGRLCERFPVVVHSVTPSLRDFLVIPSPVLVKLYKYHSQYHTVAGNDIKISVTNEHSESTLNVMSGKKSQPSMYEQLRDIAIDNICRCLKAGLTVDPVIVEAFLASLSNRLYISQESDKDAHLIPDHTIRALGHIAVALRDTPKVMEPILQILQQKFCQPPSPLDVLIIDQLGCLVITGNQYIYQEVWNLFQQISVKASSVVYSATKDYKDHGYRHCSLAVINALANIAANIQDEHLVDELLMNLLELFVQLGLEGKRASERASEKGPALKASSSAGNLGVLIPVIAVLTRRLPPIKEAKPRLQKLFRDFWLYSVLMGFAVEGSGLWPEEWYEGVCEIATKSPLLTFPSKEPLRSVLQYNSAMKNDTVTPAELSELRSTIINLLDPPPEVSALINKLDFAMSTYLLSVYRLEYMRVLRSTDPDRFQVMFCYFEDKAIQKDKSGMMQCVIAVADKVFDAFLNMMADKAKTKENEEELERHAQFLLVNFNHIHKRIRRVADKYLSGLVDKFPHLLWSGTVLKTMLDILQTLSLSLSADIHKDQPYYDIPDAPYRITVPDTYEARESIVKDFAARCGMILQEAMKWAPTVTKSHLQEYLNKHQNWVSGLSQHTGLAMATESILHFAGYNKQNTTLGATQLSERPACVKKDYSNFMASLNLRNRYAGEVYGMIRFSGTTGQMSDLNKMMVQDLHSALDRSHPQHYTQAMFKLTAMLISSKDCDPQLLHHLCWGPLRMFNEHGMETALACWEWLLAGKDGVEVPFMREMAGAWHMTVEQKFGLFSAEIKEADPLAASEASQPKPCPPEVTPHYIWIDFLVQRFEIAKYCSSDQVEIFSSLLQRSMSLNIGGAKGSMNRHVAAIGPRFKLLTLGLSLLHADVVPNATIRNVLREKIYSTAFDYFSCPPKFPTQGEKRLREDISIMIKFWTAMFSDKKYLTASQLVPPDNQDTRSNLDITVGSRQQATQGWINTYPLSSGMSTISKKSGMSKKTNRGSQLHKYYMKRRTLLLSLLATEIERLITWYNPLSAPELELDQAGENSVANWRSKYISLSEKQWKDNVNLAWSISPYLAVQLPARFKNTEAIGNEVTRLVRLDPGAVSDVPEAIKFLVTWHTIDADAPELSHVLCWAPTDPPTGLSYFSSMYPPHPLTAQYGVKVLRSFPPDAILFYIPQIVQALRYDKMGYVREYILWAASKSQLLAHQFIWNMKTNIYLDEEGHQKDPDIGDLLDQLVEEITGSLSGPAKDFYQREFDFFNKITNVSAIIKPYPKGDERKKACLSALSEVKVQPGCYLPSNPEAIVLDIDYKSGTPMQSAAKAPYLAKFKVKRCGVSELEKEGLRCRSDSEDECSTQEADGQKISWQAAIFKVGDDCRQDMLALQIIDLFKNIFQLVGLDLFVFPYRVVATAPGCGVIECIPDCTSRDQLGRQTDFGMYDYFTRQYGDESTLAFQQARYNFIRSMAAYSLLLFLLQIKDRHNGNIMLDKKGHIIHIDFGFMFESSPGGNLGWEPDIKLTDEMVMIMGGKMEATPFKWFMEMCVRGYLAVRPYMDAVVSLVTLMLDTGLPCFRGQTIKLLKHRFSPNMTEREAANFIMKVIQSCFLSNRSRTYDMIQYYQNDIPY
measured.metric: IC50

// fetch PI4KA (Homo sapiens) IC50 for Cc1nc(NC(=O)CN)sc1-c1cnc(Cl)c(NS(=O)(=O)c2ccc(C(C)(C)C)cc2)c1
> 10 µM

---

experimental.system: UniProt:P42336
Sequence (P42336 whole entry, one chain of several): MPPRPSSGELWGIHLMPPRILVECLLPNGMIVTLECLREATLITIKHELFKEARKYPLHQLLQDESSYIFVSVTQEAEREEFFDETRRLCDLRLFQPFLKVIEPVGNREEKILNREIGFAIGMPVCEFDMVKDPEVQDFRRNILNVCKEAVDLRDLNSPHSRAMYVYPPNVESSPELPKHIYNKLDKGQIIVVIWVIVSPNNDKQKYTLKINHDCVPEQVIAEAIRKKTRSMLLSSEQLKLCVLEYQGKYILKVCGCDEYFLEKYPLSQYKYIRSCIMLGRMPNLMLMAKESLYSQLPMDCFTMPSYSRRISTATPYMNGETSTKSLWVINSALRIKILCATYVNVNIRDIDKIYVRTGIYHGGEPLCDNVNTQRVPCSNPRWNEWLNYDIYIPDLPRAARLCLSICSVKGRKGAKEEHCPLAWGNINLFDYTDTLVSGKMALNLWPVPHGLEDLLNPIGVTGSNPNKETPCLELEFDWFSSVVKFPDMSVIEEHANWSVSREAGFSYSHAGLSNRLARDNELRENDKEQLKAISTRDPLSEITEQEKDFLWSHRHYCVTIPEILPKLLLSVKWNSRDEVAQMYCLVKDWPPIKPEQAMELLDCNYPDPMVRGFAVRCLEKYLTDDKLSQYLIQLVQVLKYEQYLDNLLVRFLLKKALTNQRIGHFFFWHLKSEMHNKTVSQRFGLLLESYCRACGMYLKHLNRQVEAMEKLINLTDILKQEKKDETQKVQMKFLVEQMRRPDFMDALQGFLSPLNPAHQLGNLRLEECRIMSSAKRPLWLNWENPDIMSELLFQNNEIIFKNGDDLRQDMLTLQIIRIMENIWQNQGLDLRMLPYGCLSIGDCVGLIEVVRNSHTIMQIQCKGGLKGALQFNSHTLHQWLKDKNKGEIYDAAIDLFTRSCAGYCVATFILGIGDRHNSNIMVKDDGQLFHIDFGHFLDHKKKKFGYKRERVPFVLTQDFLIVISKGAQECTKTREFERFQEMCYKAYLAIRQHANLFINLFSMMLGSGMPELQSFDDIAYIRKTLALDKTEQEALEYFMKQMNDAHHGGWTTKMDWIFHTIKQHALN
measured.metric: IC50 (nM)
# output: bare number, implied unit nM

Find the recorded IC50 belonging to Cc1nc(NC(=O)CN)sc1-c1cnc(Cl)c(NS(=O)(=O)c2ccc(C(C)(C)C)cc2)c1 and report it.
64
